system: NaV1.6 (Homo sapiens (Human))
measurementProtocol: Sodium Influx Assay (Flux), NaV1.6
setupConditions: read-out: Flux NaV1.6 IC50; Trex HEK293 cells, ANG2 dye; arithmetic mean
pIC50: −log10 of the molar value. Where a name gives a salt, the structure may show the parent alone.
assayMetric: pIC50

>  <compound>
O=S(=O)(Nc1ncns1)c1ccc(O[C@H]2CCN(Cc3ccccc3)C2)c(Cl)c1 [Example 97, 2,2,2-trifluoroacetate]

>  <pIC50>
5.84

$$$$
>  <compound>
CN(c1cc(F)c(S(=O)(=O)Nc2cscn2)cc1Cl)[C@H]1CCN(C2(c3ccccc3F)CCC2)C1 [Example 244, formate]

>  <pIC50>
5.91

$$$$
>  <compound>
Cc1cc(S(=O)(=O)Nc2cscn2)c(F)cc1N(C)[C@H]1CCN(Cc2ccn(C)n2)C1 [Example 111, formate]

>  <pIC50>
6.12

$$$$
>  <compound>
CN(c1cc(F)c(S(=O)(=O)Nc2cscn2)cc1Cl)[C@H]1CCN(Cc2cccc(N3CCC3)n2)C1 [Example 317, 2,2,2-trifluoroacetate]

>  <pIC50>
5.99

$$$$
>  <compound>
Cc1c(N(C)[C@H]2CCN(Cc3ccccc3)C2)cc(F)c(S(=O)(=O)Nc2ccc(F)cn2)c1F [Example 302, formate]

>  <pIC50>
5.94

$$$$

----------
system: NaV1.5 (Homo sapiens (Human))
Sequence (Q14524 other isoform, or with tags, fused parts or gaps): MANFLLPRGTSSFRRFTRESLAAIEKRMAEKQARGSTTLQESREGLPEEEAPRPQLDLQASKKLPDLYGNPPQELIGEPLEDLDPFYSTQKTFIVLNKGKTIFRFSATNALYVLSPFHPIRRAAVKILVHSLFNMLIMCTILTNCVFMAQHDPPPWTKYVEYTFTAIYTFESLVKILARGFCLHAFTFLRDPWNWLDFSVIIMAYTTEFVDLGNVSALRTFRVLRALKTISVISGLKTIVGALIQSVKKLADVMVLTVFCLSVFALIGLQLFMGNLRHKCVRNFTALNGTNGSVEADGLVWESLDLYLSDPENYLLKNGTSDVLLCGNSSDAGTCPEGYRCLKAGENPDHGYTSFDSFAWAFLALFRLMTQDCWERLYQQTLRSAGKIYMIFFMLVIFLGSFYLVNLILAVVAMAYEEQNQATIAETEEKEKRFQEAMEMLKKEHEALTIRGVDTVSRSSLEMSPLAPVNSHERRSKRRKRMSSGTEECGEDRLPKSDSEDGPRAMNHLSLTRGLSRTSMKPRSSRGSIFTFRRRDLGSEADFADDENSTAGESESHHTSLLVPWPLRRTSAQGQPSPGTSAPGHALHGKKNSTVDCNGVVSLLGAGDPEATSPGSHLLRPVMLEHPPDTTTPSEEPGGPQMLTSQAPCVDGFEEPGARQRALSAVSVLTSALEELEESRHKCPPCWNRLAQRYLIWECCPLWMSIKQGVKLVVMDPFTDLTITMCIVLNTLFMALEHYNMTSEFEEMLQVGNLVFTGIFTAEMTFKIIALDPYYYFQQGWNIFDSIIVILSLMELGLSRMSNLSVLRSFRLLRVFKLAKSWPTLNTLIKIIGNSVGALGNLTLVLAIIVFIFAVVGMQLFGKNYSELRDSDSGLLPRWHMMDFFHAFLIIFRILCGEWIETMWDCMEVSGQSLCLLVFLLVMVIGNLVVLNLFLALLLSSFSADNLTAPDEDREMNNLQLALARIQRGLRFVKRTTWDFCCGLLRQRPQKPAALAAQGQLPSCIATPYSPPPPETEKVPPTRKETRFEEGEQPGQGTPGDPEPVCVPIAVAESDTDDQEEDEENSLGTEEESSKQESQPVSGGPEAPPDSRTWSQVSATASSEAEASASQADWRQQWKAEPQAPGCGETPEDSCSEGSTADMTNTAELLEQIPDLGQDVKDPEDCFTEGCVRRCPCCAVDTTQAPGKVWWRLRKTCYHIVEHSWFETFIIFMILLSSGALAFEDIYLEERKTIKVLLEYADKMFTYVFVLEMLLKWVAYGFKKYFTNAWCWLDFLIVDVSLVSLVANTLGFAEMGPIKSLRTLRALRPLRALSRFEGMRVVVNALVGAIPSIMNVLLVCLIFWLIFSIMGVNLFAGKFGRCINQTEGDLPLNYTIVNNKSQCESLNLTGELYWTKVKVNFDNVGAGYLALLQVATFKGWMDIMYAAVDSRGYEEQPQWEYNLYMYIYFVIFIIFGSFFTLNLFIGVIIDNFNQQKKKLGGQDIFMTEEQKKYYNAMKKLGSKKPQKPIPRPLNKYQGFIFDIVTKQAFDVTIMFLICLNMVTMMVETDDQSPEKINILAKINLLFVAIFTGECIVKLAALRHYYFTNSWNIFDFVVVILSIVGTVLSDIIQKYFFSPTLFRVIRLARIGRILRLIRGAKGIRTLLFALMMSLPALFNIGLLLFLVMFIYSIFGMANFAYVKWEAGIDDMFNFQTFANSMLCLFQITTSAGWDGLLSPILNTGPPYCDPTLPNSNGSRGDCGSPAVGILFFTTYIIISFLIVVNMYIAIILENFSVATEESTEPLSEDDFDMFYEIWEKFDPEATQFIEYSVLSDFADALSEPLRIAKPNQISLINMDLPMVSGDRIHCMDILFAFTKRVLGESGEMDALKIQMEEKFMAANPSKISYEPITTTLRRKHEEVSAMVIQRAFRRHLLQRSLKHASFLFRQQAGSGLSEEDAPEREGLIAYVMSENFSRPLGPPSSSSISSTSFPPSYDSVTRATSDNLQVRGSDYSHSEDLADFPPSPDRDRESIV
measurementProtocol: Sodium Influx Assay (Flux), NaV1.5
setupConditions: read-out: Flux NaV1.5 IC50; Trex HEK293 cells, ANG2 dye; arithmetic mean
Structures can show the parent of a compound that is named as a salt.
assayMetric: IC50 (µM)
The response must be a number in µM with no trailing unit.

Observe how each entry below is paired with its result.
>  <compound>
O=S(=O)(Nc1cscn1)c1ccc(O[C@@H]2C[C@H]3CC[C@@H](C2)N3Cc2cccc(C(F)F)c2)c(Cl)c1 [Example 256]

>  <IC50 [µM]>
6.72

$$$$
>  <compound>
Cc1nc(CN2CC[C@H](N(C)c3cc(F)c(S(=O)(=O)Nc4cscn4)cc3C)C2)c(C(F)(F)F)o1 [Example 154, 2,2,2-trifluoroacetate]

>  <IC50 [µM]>
21.7

$$$$
>  <compound>
Cc1c(N(C)[C@H]2CCN(Cc3ccccc3)C2)cc(F)c(S(=O)(=O)Nc2cscn2)c1F [Example 103, 2,2,2-trifluoroacetate]

>  <IC50 [µM]>
28.2

$$$$
>  <compound>
Cc1cccc(CN2CC[C@@H](Nc3ccc(S(=O)(=O)Nc4nccs4)cc3Cl)C2)c1 [Example 70]

>  <IC50 [µM]>
4.2

$$$$

// switching to the query compound
Quick note, IC50 for CN(c1cc(F)c(S(=O)(=O)Nc2cscn2)cc1Cl)[C@H]1CCN(C2Cc3ccccc3C2)C1 [Example 166, formate] landed at 10.1

----------
system: NaV1.1 (Homo sapiens (Human), UniProt P35498)
measurementProtocol: Sodium Influx Assay (Flux), NaV1.1
Assay type: cell-based
setupConditions: Trex HEK293 cells, ANG2 dye; arithmetic mean
Structures can show the parent of a compound that is named as a salt.
assayMetric: IC50 (µM)

P: Cc1cc(S(=O)(=O)Nc2cscn2)c(F)cc1N(C)[C@H]1CCN(C2Cc3ccccc3C2)C1 [Example 149]
Q: CN(c1cc(F)c(S(=O)(=O)Nc2cscn2)cc1Cl)[C@H]1CCN(Cc2c[nH]c3ccccc23)C1 [Example 182, 2,2,2-trifluoroacetate]
// query Rank P against Q by their IC50 values and give the higher one. Your answer should be the label attached to the chosen record.
// result Q

a: CN(c1cc(F)c(S(=O)(=O)Nc2cscn2)cc1Cl)[C@H]1CCN(Cc2cccc(Cl)c2F)C1 [Example 205]
b: CN(c1cc(F)c(S(=O)(=O)Nc2cscn2)cc1Cl)[C@H]1CCN(Cc2cccc(OC(F)F)c2)C1 [Example 168, formate]
c: CN(c1cc(F)c(S(=O)(=O)Nc2cscn2)cc1Cl)[C@H]1CCN(Cc2cccs2)C1 [Example 215]
d: O=S(=O)(Nc1nccs1)c1ccc(OC2CCN(Cc3ccc(F)cc3)CC2)c(Cl)c1 [Example 22, 2,2,2-trifluoroacetate]
// query Returns the items ordered by IC50, from maximum to minimum. I'd appreciate it if you listed the labels in the requested order.
// result c, d, a, b

P: CN(c1cc(F)c(S(=O)(=O)Nc2cscn2)cc1Cl)[C@H]1CCN(Cc2ccc3[nH]ccc3c2)C1 [Example 190, formate]
Q: CN(c1ccc(S(=O)(=O)Nc2ncns2)cc1Cl)[C@H]1CCN(Cc2cccc(Cl)c2)C1 [Example 30]
// query Rank P against Q by their IC50 values and give the higher one. Your answer should be the label attached to the chosen record.
// result Q
(Q: 7.97 µM, P: 5.17 µM)

----------
system: NaV1.6 (Homo sapiens (Human), UniProt Q9UQD0)
measurementProtocol: Sodium Influx Assay (Flux), NaV1.6
setupConditions: read-out: Flux NaV1.6 IC50; Trex HEK293 cells, ANG2 dye; arithmetic mean
Counter-ions that a name gives are not always drawn.
assayMetric: IC50 (nM)

>  <molecule>
Cc1cc(S(=O)(=O)Nc2cscn2)c(F)cc1N(C)[C@H]1CCN(Cc2nc(C(C)C)cs2)C1

>  <IC50 (nM)>
515

$$$$

a: O=S(=O)(Nc1nccs1)c1ccc(OC2CCN(Cc3ccccc3F)CC2)c(Cl)c1
b: O=S(=O)(Nc1cscn1)c1c(F)cc(O[C@H]2CCN(Cc3ccccc3)C2)c(Br)c1F [Example 274, formate]
// query Rank a against b by their IC50 values and give the higher one. Your answer should be the label attached to the chosen record.
// result b

1: CN(c1cc(F)c(S(=O)(=O)Nc2cscn2)cc1Cl)[C@H]1CCN(Cc2ccc(Br)cc2)C1
2: Cc1cc(S(=O)(=O)Nc2cscn2)c(F)cc1N(C)[C@H]1CCN(C2Cc3ccccc3C2)C1
// query Rank 1 against 2 by their IC50 values and give the higher one. Your answer should be the label attached to the chosen record.
// result 1

1: CN(c1ccc(S(=O)(=O)Nc2ncns2)cc1Cl)[C@H]1CCN(Cc2c(F)cccc2F)C1
2: Cc1nc(CN2CC[C@H](N(C)c3cc(F)c(S(=O)(=O)Nc4cscn4)cc3C)C2)c(C(F)(F)F)o1 [Example 154, 2,2,2-trifluoroacetate]
3: CN(c1cc(F)c(S(=O)(=O)Nc2cscn2)cc1Cl)[C@H]1CCN(Cc2cccc(F)c2F)C1
4: CC[C@@H](c1ccccc1)N1CC[C@H](N(C)c2cc(F)c(S(=O)(=O)Nc3cscn3)cc2Cl)C1
5: CN(c1ccc(S(=O)(=O)Nc2ncns2)cc1Cl)[C@H]1CCN(Cc2cccc(Cl)c2F)C1
// query // ascending sort on recorded IC50 I'd appreciate it if you listed the labels in the requested order.
// result 5, 1, 4, 3, 2

a: Cc1cc(S(=O)(=O)Nc2cnsc2)c(F)cc1N(C)[C@H]1CCN(Cc2ccccc2)C1
b: CN(c1cc(F)c(S(=O)(=O)Nc2cscn2)cc1Cl)[C@H]1CCN(Cc2ccccc2O)C1
c: Cc1c(N(C)[C@H]2CCN(Cc3cccc(C(F)F)c3)C2)ccc(S(=O)(=O)Nc2cscn2)c1F
d: Cc1coc(CN2CC[C@H](N(C)c3cc(F)c(S(=O)(=O)Nc4cscn4)cc3C)C2)n1
e: O=S(=O)(Nc1cscn1)c1ccc(OC2CCN(Cc3cccc(C(F)F)c3)CC2)c(Cl)c1 [Example 232, formate]
// query // ascending sort on recorded IC50 I'd appreciate it if you listed the labels in the requested order.
// result c, e, b, a, d

----------
Readings of IC50 for the listed compounds
system: NaV1.5 (Homo sapiens (Human))
measurementProtocol: Sodium Influx Assay (Flux), NaV1.5
setupConditions: read-out: Flux NaV1.5 IC50; Trex HEK293 cells, ANG2 dye; arithmetic mean
Counter-ions that a name gives are not always drawn.

>  <compound>
O=S(=O)(Nc1ncns1)c1ccc(OC2CCN(Cc3ccccc3)CC2)c(Cl)c1 [Example 100, 2,2,2-trifluoroacetate]

>  <IC50>
> 30 µM

$$$$
>  <compound>
Cc1cccc(CN2CC[C@H](N(C)c3ccc(S(=O)(=O)Nc4ncns4)cc3Cl)C2)c1F [Example 34, 2,2,2-trifluoroacetate]

>  <IC50>
> 30 µM

$$$$
>  <compound>
CN(c1cc(F)c(S(=O)(=O)Nc2cscn2)c(F)c1Cl)[C@H]1CCN(Cc2ccccc2)C1 [Example 102, formate]

>  <IC50>
> 30 µM

$$$$
>  <compound>
Cc1cc(S(=O)(=O)Nc2cscn2)c(F)cc1N(C)[C@H]1CCN(Cc2ccccn2)C1 [Example 278, 2,2,2-trifluoroacetate]

>  <IC50>
> 30 µM

$$$$

Quick note, IC50 for Cc1cc(S(=O)(=O)Nc2cscn2)c(F)cc1N(C)[C@H]1CCN(CC(C)(C)C)C1 [Example 124, formate] landed at > 30 µM

Quick note, IC50 for Cc1cc(S(=O)(=O)Nc2cscn2)c(F)cc1N(C)[C@H]1CCN(Cc2ccn(C(F)F)n2)C1 [Example 147] landed at > 30 µM

Quick note, IC50 for Cc1c(N(C)[C@H]2CCN(Cc3ccccc3F)C2)cc(F)c(S(=O)(=O)Nc2cscn2)c1F [Example 236, formate] landed at > 30 µM

Quick note, IC50 for O=S(=O)(Nc1nccs1)c1ccc(OC2CCN(Cc3cccnc3)CC2)c(Cl)c1 [Example 64] landed at > 30 µM

Quick note, IC50 for Cc1csc(CN2CC[C@H](N(C)c3cc(F)c(S(=O)(=O)Nc4cscn4)cc3C)C2)n1 [Example 129] landed at > 30 µM

Quick note, IC50 for CN(c1cc(F)c(S(=O)(=O)Nc2cscn2)cc1Cl)[C@H]1CCN(Cc2cccc(C(C)(C)O)c2)C1 [Example 161, formate] landed at > 30 µM
